- Tested on: M14
- Test summary: Growth inhibition of human M14 cells at 10^-5 M incubated for 48 hrs by sulforhodamine B assay
- Format: functional
- Assay conditions: M14, 48 h, read-out: GI
Measured parameter: inhibition of growth at 10 µM (%)
Please give a number only; it is taken to be in %.

Please review the following examples before continuing.
• Oc1ccccc1C1NC(=S)Nc2c1sc1ccc(Cl)cc21 (stereo not given) = 7.43
• O=[N+]([O-])c1cccc(C2c3sc4ccc(Cl)cc4c3N=C3NN=NN32)c1 (stereo not given) = -10.9
• N=C1Nc2c(sc3ccc(Cl)cc23)C(c2cccc([N+](=O)[O-])c2)N1 (stereo not given) = -5.05
• O=C1CSC2=Nc3c(sc4ccc(Cl)cc34)C(c3ccc4ccccc4c3)N12 (stereo not given) = 6.91

Now consider the entry below.
Form field inhibition of growth at 10 µM, entry `O=C1/C(=C\c2cccc(Br)c2)Sc2ccc(Cl)cc21` : -1.09
